# study_system: human σ1 receptor (Homo sapiens, UniProt Q99720)
# Construct: expressed in transfected cells; host or cells: HEK-293
# Sequence (Q99720 whole entry): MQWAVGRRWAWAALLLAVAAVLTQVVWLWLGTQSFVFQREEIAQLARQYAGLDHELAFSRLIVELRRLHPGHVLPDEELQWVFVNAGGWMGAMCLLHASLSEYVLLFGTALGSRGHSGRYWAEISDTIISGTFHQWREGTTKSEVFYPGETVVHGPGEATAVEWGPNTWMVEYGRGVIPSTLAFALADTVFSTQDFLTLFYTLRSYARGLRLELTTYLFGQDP
# procedure_details: Human σ1 receptor radioligand assay ([3H](+)-pentazocine)
# Type: binding
# recorded_conditions: transfected HEK-293 membranes, 5 nM [3H](+)-pentazocine, 37° C., 120 minutes; read-out: Binding σ-[…] (binding to σ1-receptor expressed as Ki)
measured_property: Ki

Would you please look over these solved cases?
(Q) Dear colleague, I am looking for the recorded Ki of the following compound: CC(C)(C)CCN1CCC(CNC(=O)N2CC(C)(C)c3ncccc32)CC1
(A) 100 to 500 nM

(Q) Item under review: Cc1ccc2c(n1)C(C)(C)CN2C(=O)N1CCC2(CCN(Cc3ccc(F)c(C#N)c3)CC2)CC1 . Reported Ki?
(A) 100 to 500 nM

(Q) Give its Ki value. Item: Cc1ccc2c(n1)C(C)(C)CN2C(=O)N1CCC2(CCN(Cc3ccccc3F)CC2)CC1
(A) < 100 nM

(Q) Requested read-out: Ki. Entry: CN(Cc1ccccc1)[C@H]1CC[C@H](N(C)C(=O)N2CC(C)(C)c3ncccc32)CC1
(A) 500 to 1000 nM

(Q) Item CN(Cc1ccc(F)c(F)c1)C1CCN(C(=O)N2CC(C)(C)c3ncccc32)CC1 has what recorded Ki?
(A) 100 to 500 nM

Further cases:
(Q) GET /values?readout=Ki&item= Cc1ccc2c(n1)C(C)(C)CN2C(=O)[C@H]1CC[C@H](N(C)Cc2ccc(F)cc2F)CC1
(A) < 100 nM

(Q) Given the compound Cc1ccc2c(n1)C(C)(C)CN2C(=O)N1CCC(N(C)CCc2ccccc2)CC1 , what is its reported Ki?
(A) 100 to 500 nM

(Q) I am curious: what Ki value has been reported for Cc1ccc2c(n1)C(C)(C)CN2C(=O)C1CN(Cc2cccc(F)c2)C1 ?
(A) < 100 nM

(Q) Need Ki of Cc1ccc2c(n1)C(C)(C)CN2C(=O)N(C)C[C@@H](c1ccccc1)N(C)C , thanks.
(A) 500 to 1000 nM

(Q) Query (compound): CN(Cc1ccc(F)cc1)C1CCN(C(=O)N2CC(C)(C)c3ncccc32)CC1 ; field requested: Ki
(A) 500 to 1000 nM

(Q) Returns the measured Ki for the input compound. Input: Cc1ccc2c(n1)C(C)(C)CN2C(=O)[C@H]1CC[C@H](N(C)Cc2ccc(F)cc2)CC1
(A) < 100 nM

(Q) Item CN(Cc1ccccc1)C1CCN(C(=O)N2CC(C)(C)c3nc(C#N)ccc32)CC1 has what recorded Ki?
(A) < 100 nM

(Q) Endpoint output: Ki of CC1(C)CN(C(=O)N2CCC3(CCN(Cc4cccc(C#N)c4)CC3)C2)c2cccnc21 . Value?
(A) 100 to 500 nM

---

# study_system: human σ2/TMEM97 receptor (Homo sapiens, UniProt Q5BJF2)
# Construct: expressed in transfected cells; host or cells: HEK-293
# Sequence (Q5BJF2 whole entry): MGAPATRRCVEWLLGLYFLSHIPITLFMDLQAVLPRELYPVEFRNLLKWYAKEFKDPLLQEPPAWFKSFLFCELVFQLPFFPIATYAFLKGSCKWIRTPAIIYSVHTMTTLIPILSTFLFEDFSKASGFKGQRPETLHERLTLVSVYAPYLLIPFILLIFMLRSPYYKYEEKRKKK
# procedure_details: Binding assay to human σ2/TMEM97 receptor ([3H]-DTG)
# recorded_conditions: transfected HEK-293 membranes, 10 nM [3H]-DTG, 25° C., 120 minutes; read-out: Binding σ-[…] (binding to σ2-receptor expressed as Ki)
measured_property: Ki

See these solved cases before continuing.
(Q) Please look up its Ki: CN(Cc1ccc(F)c(C#N)c1)C1CCN(C(=O)N2CC(C)(C)c3ncccc32)CC1 [Example 45]
(A) < 100 nM

(Q) Name the reported Ki value associated with the compound Cc1ccc2c(n1)C(C)(C)CN2C(=O)NC1CCN(Cc2cccc(Cl)c2)CC1 [Example 55]
(A) 100 to 500 nM

---
(Q) Fill in the blank: the reported Ki of CC1(C)CN(C(=O)N2CCC3(CCN(Cc4ccc(F)cc4)CC3)C2)c2cccnc21 [Example 149] is ____.
(A) < 100 nM
